assay: MM1S cell viability effects, profiling panel, calcein-AM fluorescence, 48 h, basal (AID 1165); conditions: higher = more signal;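 further: viability of MM1S multiple myeloma cells under basal unstimulated conditions; test concentration not given here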
// reported z-score per item
Measured parameter: z-score

Mol: COC(=O)[C@@]1(Cc2ccc(OC)cc2)[C@H]2c3cc(C(=O)N4CCCC4)n(CCc4cc5ccccc5[nH]4)c3C[C@H]2CN1C(=O)c1ccccc1
Measured result: -0.574
--
Mol: CC(C)CN1C(=O)[C@@]2(c3ccc([N+](=O)[O-])cc3)CC(=O)N(CC34CC5CC(CC(C5)C3)C4)[C@@H]2c2ccc(CO)cc21
Measured result: -0.0484
--
Mol: CC(C)CNC(=O)[C@@H]1c2ccccc2C(=O)N(Cc2cc(F)cc(C(F)(F)F)c2)[C@H]1c1ccc(CO)cc1
Measured result: -0.215
--
Mol: C=CCOC(=O)[C@@H]1[C@H]2C(=O)O[C@H](c3ccccc3)[C@H](c3ccccc3)N2[C@H](c2ccc(OCCOC(=O)[C@H]3C[C@H]4C(=O)N[C@@H](CCCC[N+](C)(C)C)C(=O)N4[C@H]3c3ccc(O)cc3)cc2)[C@@]12C(=O)Nc1ccc(I)cc12
Measured result: -0.477
--
Mol: COCCOC(=O)N1C(=O)[C@@]2(c3cc(C#CCC(C(=O)OC)C(=O)OC)ccc31)[C@H](c1ccc(OCCO)cc1)N1[C@H](c3ccccc3)[C@H](c3ccccc3)OC(=O)[C@H]1[C@@H]2C(=O)N1CCN(c2ncccn2)CC1
Measured result: -0.0585

Where do the numbers come from? From PubChem BioAssay.
